# EXPERIMENTAL_TARGET: HIV-1_(SF162) gp120 (HIV-1 (strain SF162, clade B))
# MEASUREMENT_NOTES: SPR
Starred links: 1 amine or outer side, 2 acyl side, 3 side chain; linkers in the order of their positions; H or OH if unused. Non-standard residues stand in square brackets, D forms with d. No end group written: not given here. X1 = (2S,4S)‑4‑(4-ferrocenyl-1H-1,2,3-triazol-1-yl)pyrrolidine‑2‑carboxylic acid, O=C([C@@H]1C[C@H](n2cc(-[c-]3cccc3)nn2)CN1[*:1])[*:2].[Fe+2].c1cc[cH-]c1
ENDPOINT: Kd

BINDER	ENDPOINT	RECORDED_MEASUREMENT
RINNI[X1]WSEAMM-NH2 [HNG-156, ferrocene triazole peptide conjugate]	Kd	9 nM
